The values you see were collected from ChEMBL document CHEMBL1124487.

molecular target: Papain (Carica papaya); experiment: Inhibition of papain-catalyzed hydrolysis of BzArg p-nitroanilide by compound at pH 5
attribute measured: Ki (µM)
Report as a plain number; the unit µM is understood.

# compound CC(=O)N[C@@H](C)C(=O)N/N=C/CNC(=O)c1ccccc1 ; its Ki = 38

====

target: Papain (Carica papaya, UniProt P00784); test: Inhibition of papain-catalyzed hydrolysis of BzArg p-nitroanilide by compound at pH 7
Sequence (P00784 whole entry): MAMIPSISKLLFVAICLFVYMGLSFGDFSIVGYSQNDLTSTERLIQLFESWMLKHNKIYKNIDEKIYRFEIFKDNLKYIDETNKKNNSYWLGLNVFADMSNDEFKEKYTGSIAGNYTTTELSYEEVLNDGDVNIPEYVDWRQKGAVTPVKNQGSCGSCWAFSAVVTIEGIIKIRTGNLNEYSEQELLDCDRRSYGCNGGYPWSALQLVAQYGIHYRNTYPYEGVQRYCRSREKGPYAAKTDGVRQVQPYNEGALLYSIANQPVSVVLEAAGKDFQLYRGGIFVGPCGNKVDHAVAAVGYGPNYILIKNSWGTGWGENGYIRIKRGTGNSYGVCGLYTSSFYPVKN
attribute measured: pKi
// field semantics: pKi = negative decimal log of concentration (mol/L)

Reported pKi of CC(=O)N[C@@H](C)C(=O)N/N=C/CNC(=O)c1ccccc1 : 4.52

====

target: Papain (Carica papaya, UniProt P00784); test: Inhibition of papain-catalyzed hydrolysis of BzArg p-nitroanilide by compound at pH 5.5
attribute measured: Ki (µM)
# output: bare number, implied unit µM

# Ki of CC(=O)N[C@@H](C)C(=O)N/N=C/CNC(=O)c1ccccc1 = 25
